The values you see were collected from patent US7749984B2.

# study target: α3β4 nAChR (Rattus norvegicus, UniProt P04757+P12392)
# Sequence (P04757 26-499): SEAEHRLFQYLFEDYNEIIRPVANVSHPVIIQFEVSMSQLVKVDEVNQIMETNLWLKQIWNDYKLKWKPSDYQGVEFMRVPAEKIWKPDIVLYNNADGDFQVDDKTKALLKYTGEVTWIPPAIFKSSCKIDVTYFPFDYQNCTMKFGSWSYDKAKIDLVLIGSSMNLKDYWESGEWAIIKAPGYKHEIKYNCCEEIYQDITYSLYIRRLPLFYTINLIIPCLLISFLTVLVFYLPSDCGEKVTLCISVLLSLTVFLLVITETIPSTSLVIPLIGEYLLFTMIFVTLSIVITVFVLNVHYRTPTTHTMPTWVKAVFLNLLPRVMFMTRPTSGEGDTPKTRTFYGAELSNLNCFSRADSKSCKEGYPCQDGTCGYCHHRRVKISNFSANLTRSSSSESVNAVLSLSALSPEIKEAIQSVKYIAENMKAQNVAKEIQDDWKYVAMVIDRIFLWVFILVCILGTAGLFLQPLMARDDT
# Sequence (P12392 21-495): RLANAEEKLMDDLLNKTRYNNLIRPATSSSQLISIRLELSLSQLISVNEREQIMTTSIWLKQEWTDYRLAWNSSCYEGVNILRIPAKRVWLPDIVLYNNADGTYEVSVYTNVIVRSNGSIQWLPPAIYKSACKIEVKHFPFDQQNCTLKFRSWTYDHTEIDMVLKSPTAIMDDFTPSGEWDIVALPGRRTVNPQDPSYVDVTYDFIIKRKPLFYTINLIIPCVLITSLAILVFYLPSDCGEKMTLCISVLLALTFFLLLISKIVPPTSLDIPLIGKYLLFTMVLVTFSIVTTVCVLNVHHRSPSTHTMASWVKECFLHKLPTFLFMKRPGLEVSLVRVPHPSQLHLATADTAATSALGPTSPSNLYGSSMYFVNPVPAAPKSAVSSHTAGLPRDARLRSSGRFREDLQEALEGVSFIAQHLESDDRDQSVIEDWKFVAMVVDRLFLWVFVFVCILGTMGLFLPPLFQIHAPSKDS
# assay explanation: Nicotine-stimulated 86Rb+ efflux assay, KXα3β4R2 cell line
# Assay type: cell-based
# Parameters: host or cells: HEK293 (KXα3β4R2)
# condition notes: IC50 of Rb+ efflux, cell line KXα3β4R2
measured parameter: IC50 (µM)
Express it in µM; write the number only.

# example entries with known answers
{"columns": ["compound", "IC50 [µM]"],
 "data": [
  ["COc1ccc2c(c1)[C@]13CCCC[C@@H]1[C@H](C2)N(C)CC3 [dextromethorphan]", 10.1],
  ["COc1ccc2c(c1)[C@@]13CCCC[C@H]1[C@@H](C2)N(C)CC3 [levomethorphan]", 10.9],
  ["c1ccc(C2(N3CCCCC3)CCCCC2)cc1 [phenylcyclidine]", 7],
  ["COc1ccc(CCNCCCC(C#N)(c2ccc(OC)c(OC)c2)C(C)C)cc1OC (centres unmarked) [nor-verapamil]", 2.6]
]}

Please report the recorded IC50 for CCC(=O)C(CC(C)N(C)C)(c1ccccc1)c1ccccc1 (centres unmarked) [methadone] .
1.9

----------
Overview of reported IC50 across a group of compounds:
# study target: α3β4 nAChR (Rattus norvegicus, UniProt P04757+P12392)
# assay explanation: Nicotine-stimulated 86Rb+ efflux assay, KXα3β4R2 cell line
# Assay type: cell-based
# Design: host or cells: HEK293 (KXα3β4R2)
# condition notes: nicotine-stimulated 86Rb+ efflux, cell line KXα3β4R2; read-out: IC50
Express it in µM; write the number only.

Please report the recorded IC50 for CNCCN1C(=O)[C@H](O)[C@H](c2ccc(O)cc2)Sc2ccccc21 .
63.1

Please report the recorded IC50 for COc1ccc([C@@H]2Sc3ccccc3N(CCN(C)C)C(=O)[C@@H]2OC(C)=O)cc1 .
2.2

Please report the recorded IC50 for CN(C)CCN1C(=O)[C@H](O)[C@H](c2ccc(O)cc2)Sc2ccccc21 .
73.2

----------
# Test system: nAChR, PC-12 cells
# assay explanation: Rb+ efflux assay, PC-12 cells
# Assay type: cell-based, rat
# condition notes: cell line PC-12
measured parameter: IC50 (µM)
Express it in µM; write the number only.

Please report the recorded IC50 for CNC1(c2ccccc2Cl)CCCCC1=O (stereo not shown) [ketamine] .
5.2

----------
# study target: α3β4 nAChR (Rattus norvegicus, UniProt P04757+P12392)
# assay explanation: Nicotine-stimulated 86Rb+ efflux assay, KXα3β4R2 cell line
# Assay type: cell-based
# Design: host or cells: HEK293 (KXα3β4R2)
# condition notes: cell line KXα3β4R2; read-out: IC50 of Rb+ efflux
# Protocol: After the prediction has been done based on clustering the actual values of IC50 were determined using the nicotine-stimulated ^86Rb^+ efflux assay on cell line KXα3β4R2.
measured parameter: pIC50
Note: pIC50 values are expressed as the negative base-10 logarithm of concentration in M.

Record lookup: for α3β4 nAChR (Rattus norvegicus, UniProt P04757+P12392), what pIC50 belongs to COc1ccc([C@@H]2Sc3ccccc3N(CCN(C)C)C(=O)[C@@H]2OC(C)=O)cc1 ?
5.65

----------
Overview of reported k′(NLC) retention capacity factor across a group of molecules:
# study target: α3β4 nAChR (Rattus norvegicus, UniProt P04757+P12392)
# assay explanation: biochemical
# Format: binding
# Set-up: host or cells: HEK293 (KXα3β4R2)
# condition notes: α3β4 nAChR; 10 μM, 20 μl injected; ammonium acetate 10 mM pH 7.4/methanol 85:15
A bare number is all that is needed in reply.

# example entries with known answers
{"columns": ["molecule", "study target", "k′(NLC) retention capacity factor"],
 "data": [
  ["CCC(=O)C(CC(C)N(C)C)(c1ccccc1)c1ccccc1 (stereo not drawn) [methadone]", "α3β4 nAChR (Rattus norvegicus, UniProt P04757+P12392)", 44.45],
  ["COc1ccc(CCNCCCC(C#N)(c2ccc(OC)c(OC)c2)C(C)C)cc1OC (single isomer, unassigned) [nor-verapamil-R, nor-verapamil]", "α3β4 nAChR (Rattus norvegicus, UniProt P04757+P12392)", 97.99]
]}

# input for lookup
Please report the recorded k′(NLC) retention capacity factor for C[C@]12N[C@H](Cc3ccccc31)c1ccccc12 [MK-801] .
19.10
